Provenance of the data: PubChem BioAssay AID1159580

protocol: chemical genetic growth profiling, strain panel (AID 1159580);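 note: tested at 20 µM; growth read once vehicle control cultures reached saturation at 30 °C; 1 = growth at the plate median or of vehicle wells; lower values mean less growth of the strain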
setup conditions: S. cerevisiae deletion strains, growth OD, locus YEL061C, strain CIN8 (second series), stronger effect = lower value
Among all 5,500 compounds or so, about 2,000 (36%) were called active. Another 18% or so got no clear call; they are omitted. This is one part of the list.
Each record here notes measured normalized growth.

{"columns": ["molecule", "normalized growth"],
 "data": [
  ["CCC(=O)OCC(=O)[C@@]1(OC(=O)CC)[C@@H](C)CC2C3CCC4=CC(=O)C=C[C@]4(C)C3(F)[C@@H](O)C[C@@]21C (stereo partly specified)", 0.989],
  ["COC1C(O)C(O[C@H]2CC[C@]3(C=O)C4C(CC[C@]3(O)C2)[C@@]2(O)CC[C@H](C3=CC(=O)OC3)[C@@]2(C)C[C@H]4OC(C)=O)OC(C)C1OC(C)=O (stereo partly specified)", 1.02],
  ["O=C(CCCN1CCN(c2ccccn2)CC1)c1ccc(F)cc1", 0.976],
  ["C[C@H]1O[C@H](O[C@H]2[C@H](O)[C@@H](O)[C@@H](O[C@H]3[C@H](O)[C@@H](O)C(O)O[C@@H]3CO)O[C@@H]2CO)[C@H](O)[C@@H](O)[C@@H]1N[C@H]1C=C(CO)[C@@H](O)[C@H](O)[C@H]1O (stereo partly specified)", 0.994],
  ["CC1=CC(=O)C(C(C)C)=CC1=O", 0.917],
  ["C[C@H]1[C@H](C)CC[C@]2(C(=O)O)CC[C@]3(C)C(=CCC4[C@@]5(C)C[C@@H](O)[C@H](O)[C@@](C)(CO)C5CC[C@]43C)[C@H]12 (stereo partly specified)", 1.03],
  ["CC(=O)OC1CC[C@@]2(C)C(CCC3C2CC[C@]2(C)C(C4=CC(=O)OC4)C(OC(C)=O)CC32O)C1 (stereo partly specified)", 0.985],
  ["CCC(=O)OCC(=O)C1(OC(=O)CC)C(C)CC2C3CCC4=CC(=O)C=CC4(C)C3(Cl)C(O)CC21C (stereo unspecified)", 0.975],
  ["COC(=O)C[C@H]1C(C)(C)[C@@H](O)[C@@H]2CC3=C4CC(O)O[C@@H](c5ccoc5)[C@]4(C)CCC3[C@@]1(C)C2=O (stereo partly specified)", 1.02],
  ["CO[C@@H]1[C@@H](OC(N)=O)[C@@H](O)[C@H](Oc2ccc3c(O)c(NC(=O)c4ccc(O)c(CC=C(C)C)c4)c(=O)oc3c2C)OC1(C)C", 1.02],
  ["NCC(O)CC(=O)O (stereo unspecified)", 0.966],
  ["C[C@@H]1O[C@@H](O[C@H]2CC[C@]3(C=O)C4CC[C@]5(C)[C@@H](C6=CC(=O)OC6)CC[C@]5(O)C4CC[C@]3(O)C2)[C@H](O)[C@H](O)[C@H]1O (stereo partly specified)", 1],
  ["COC1CC(OC2CCC3(C)C(CCC4C3CCC3(C)C(C5=CC(=O)OC5)C(OC(C)=O)CC43O)C2)OC(C)C1O (stereo unspecified)", 1.02],
  ["CCCCC(=O)O[C@]1(C(=O)CO)[C@@H](C)CC2C3CCC4=CC(=O)C=C[C@]4(C)[C@@]3(F)C(O)C[C@@]21C (stereo partly specified)", 0.991],
  ["CCC(=O)OCC(=O)C1(OC(=O)CC)C(C)CC2C3C(Cl)CC4=CC(=O)C=CC4(C)C3C(O)CC21C (stereo unspecified)", 1.02],
  ["O=C(CCCN1CCC2(CC1)C(=O)NCN2c1ccccc1)c1ccc(F)cc1", 0.992]
]}

----------
protocol: chemical genetic growth profiling, strain panel (AID 1159580);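 note: tested at 20 µM; growth read once vehicle control cultures reached saturation at 30 °C; 1 = growth at the plate median or of vehicle wells; lower values mean less growth of the strain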
setup conditions: S. cerevisiae deletion strains, growth OD, locus YNL207W, strain RIO2, stronger effect = lower value
The whole screen tested about 5,500 compounds, of which about 2,000 (36%) were called active. Roughly 18% stayed inconclusive and do not appear here. Some of the results follow.

{"columns": ["molecule", "normalized growth"],
 "data": [
  ["OC(COCc1ccccc1)Cn1c2ccccc2c2ccccc21 (stereo not given)", 0.946],
  ["O=c1[nH][nH]c(=O)n1CCCc1cc2cccc3ccc4cccc1c4c32", 0.995],
  ["CN(C)/C=C1\\CSc2ccc(Cl)cc2C1=O", 0.922],
  ["O=C(NNc1cc(C(F)(F)F)cc(C(F)(F)F)c1)c1cnc2n(c1=O)CCS2", 0.996],
  ["O=C1/C(=C/c2c[nH]c3ccccc23)CSc2ccccc21", 0.997]
]}

----------
protocol: chemical genetic growth profiling, strain panel (AID 1159580);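 note: tested at 20 µM; growth read once vehicle control cultures reached saturation at 30 °C; 1 = growth at the plate median or of vehicle wells; lower values mean less growth of the strain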
setup conditions: S. cerevisiae deletion strains, growth OD, locus YDR392W, strain spt3
Out of some 5,500 compounds screened, about 2,000 (36%) were called active. Inconclusive results (about 18%) are left out. Cut-off read from the data, not from the text of the source: active = normalized growth mostly below about 0.91 (no sharp cut-off); inconclusive = no clear call, values can overlap the other calls; inactive = mostly above about 0.92. The list shows a part of the results.
Outcome codes: active, inactive

{"columns": ["molecule", "class label"],
 "data": [
  ["CC(C)=CC1C(CO)C1(C)C (centres undefined)", "inactive"],
  ["CC(=O)N1CCN(c2ccc(OCC3CO[C@](Cn4ccnc4)(c4ccc(Cl)cc4Cl)O3)cc2)CC1 (some centres undefined)", "active"],
  ["N#Cc1c(Cl)cccc1Cl", "inactive"],
  ["CC1(C)C(O)CC(=O)C2(C)C1CC(O)C1(C)C2CCC2(C)C(c3ccoc3)OC(=O)C3OC321 (centres undefined)", "inactive"],
  ["NC[C@H]1O[C@H](OC2[C@@H](N)C[C@@H](N)[C@H](O[C@H]3O[C@H](CO)[C@@H](O)[C@H](N)[C@H]3O)[C@H]2O)[C@H](O)[C@@H](O)[C@@H]1O (some centres undefined)", "inactive"],
  ["O=C(CCCN1CCN(c2ccccn2)CC1)c1ccc(F)cc1", "active"],
  ["OC1(c2ccc(Cl)c(C(F)(F)F)c2)CCN(CCCC(c2ccc(F)cc2)c2ccc(F)cc2)CC1", "active"],
  ["Nc1ccc(S(=O)(=O)Nc2ncccn2)cc1", "inactive"],
  ["CO[C@H]1[C@@H](O)[C@@H](C)O[C@H](O[C@H]2CCC3(C)C4CCC5(C)[C@@H](C6=CC(=O)OC6)CC[C@]5(O)[C@@H]4CC[C@]3(O)C2)[C@@H]1O (some centres undefined)", "inactive"]
]}

----------
protocol: chemical genetic growth profiling, strain panel (AID 1159580);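 note: tested at 20 µM; growth read once vehicle control cultures reached saturation at 30 °C; 1 = growth at the plate median or of vehicle wells; lower values mean less growth of the strain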
setup conditions: S. cerevisiae deletion strains, growth OD, locus YOL147C, strain pex11
About 2,000 (36%) of roughly 5,500 compounds were called active. About 18% were inconclusive and are not listed. Cut-off read from the data, not from the text of the source: active = normalized growth mostly below about 0.91 (no sharp cut-off); inconclusive = no clear call, values can overlap the other calls; inactive = mostly above about 0.92. The list shows a part of the results.
Possible outcomes: active, inactive

{"columns": ["compound", "class label"],
 "data": [
  ["COc1cc(C)c2c(=O)c3c(O)cc(O)cc3oc2c1", "active"],
  ["CSc1nc(NC(C)C)nc(NC(C)C)n1", "inactive"],
  ["C[C@]12CCC(=O)C=C1CCc1ccc(O)cc12", "inactive"],
  ["COC(=O)NC(=S)Nc1ccccc1NC(=S)NC(=O)OC", "inactive"],
  ["CC(C)=CC1C(CO)C1(C)C (stereo not given)", "inactive"],
  ["NC[C@@H]1O[C@H](O[C@@H]2[C@@H](CO)OC(O[C@@H]3[C@@H](O)[C@H](N)C[C@H](N)[C@H]3O[C@H]3O[C@H](CO)[C@@H](O)[C@H](O)[C@H]3N)[C@@H]2O)[C@H](N)[C@@H](O)[C@@H]1O (stereo not given in full)", "inactive"],
  ["COC1=CC(C)[C@@H]2C[C@H]3OC(=O)C[C@H]4C(C)=C(OC)C(=O)C([C@@]34C)[C@@]2(C)C1=O (stereo not given in full)", "inactive"],
  ["COc1cc(O)c2c(=O)cc(-c3ccc(OC)c(-c4c(O)cc(O)c5c(=O)cc(-c6ccc(O)cc6)oc45)c3)oc2c1", "inactive"],
  ["CC[C@@]1(O)C(=O)OCc2c1cc1n(c2=O)Cc2cc3cc(O)ccc3nc2-1", "inactive"],
  ["CCC(=O)O[C@]1(C(=O)CCl)[C@@H](C)CC2C3CCC4=CC(=O)C=C[C@]4(C)[C@@]3(F)[C@@H](O)C[C@@]21C (stereo not given in full)", "inactive"],
  ["NC[C@H]1O[C@H](OC2[C@@H](N)C[C@@H](N)[C@H](O[C@H]3O[C@H](CO)[C@@H](O)[C@H](N)[C@H]3O)[C@H]2O)[C@H](O)[C@@H](O)[C@@H]1O (stereo not given in full)", "inactive"],
  ["NC[C@H]1O[C@H](O[C@H]2[C@H](O)[C@@H](O[C@H]3O[C@H](CO)[C@@H](O)[C@H](N)[C@H]3O)[C@H](N)C[C@@H]2N)[C@H](N)[C@@H](O)[C@@H]1O", "inactive"],
  ["COC1CC(O[C@H]2CC[C@]3(C=O)C4CC[C@]5(C)C(C6=CC(=O)OC6)CC[C@]5(O)C4CC[C@]3(O)C2)OC(C)C1O (stereo not given in full)", "inactive"],
  ["CC1CCCC(C)N1NC(=O)c1ccc(Cl)c(S(N)(=O)=O)c1 (stereo not given)", "inactive"],
  ["CCOC(=O)CC(SP(=S)(OC)OC)C(=O)OCC (stereo not given)", "inactive"],
  ["NC(=O)c1ccccc1O", "inactive"],
  ["C/C=C/CC(C)C(O)C1C(=O)NC(CC)C(=O)N(C)CC(=O)N(C)C(CC(C)C)C(=O)NC(C(C)C)C(=O)N(C)C(CC(C)C)C(=O)NC(C)C(=O)NC(C)C(=O)N(C)C(CC(C)C)C(=O)N(C)C(CC(C)C)C(=O)N(C)C(C(C)C)C(=O)N1C (stereo not given)", "inactive"],
  ["CCC(=O)OCC(=O)[C@@]1(OC(=O)CC)[C@@H](C)CC2C3CCC4=CC(=O)C=C[C@]4(C)C3(F)[C@@H](O)C[C@@]21C (stereo not given in full)", "inactive"],
  ["Nc1ccc(S(=O)(=O)Nc2ncccn2)cc1", "inactive"],
  ["Cc1cc(N)c2ccccc2[n+]1CCCCCCCCCC[n+]1c(C)cc(N)c2ccccc21", "active"],
  ["CC(C)Nc1nc(Cl)nc(NC(C)C)n1", "inactive"],
  ["COc1ccc(-c2cc(=O)c3c(O)cc(O)cc3o2)cc1O", "inactive"],
  ["NC(N)=Nc1ccc(Cl)cc1", "inactive"],
  ["CC1(C)Oc2ccc3ccc(=O)oc3c2CC1O (stereo not given)", "inactive"],
  ["CC1=C2C(O)C(=O)OC3CC4C(C)(C)C(=O)C=C[C@]4(C)C(CC1)[C@]23C (stereo not given in full)", "inactive"],
  ["O=C(/C=C(\\O)c1ccccc1)c1ccccc1O", "active"],
  ["C[C@@H]1CCC2[C@](C)(CO)[C@@H](O)CC[C@]2(C)[C@@]12CC[C@@](CO)(CCO)O2 (stereo not given in full)", "inactive"],
  ["CO[C@@H]1[C@@H](OC(N)=O)[C@@H](O)[C@H](Oc2ccc3c(O)c(NC(=O)c4ccc(O)c(CC=C(C)C)c4)c(=O)oc3c2C)OC1(C)C", "inactive"],
  ["COc1ccc(-c2cc(=O)c3c(O)c(OC)c(O[C@H]4O[C@H](CO[C@@H]5O[C@@H](C)[C@H](O)[C@@H](O)[C@H]5O)[C@@H](O)[C@H](O)[C@H]4O)cc3o2)cc1", "inactive"],
  ["NCCCN", "inactive"],
  ["CC[C@@]1(O)C(=O)OCc2c1cc1n(c2=O)Cc2cc3ccccc3nc2-1", "active"],
  ["COc1ccc(-c2cc(=O)c3c(O)c(OC)c(OC)cc3o2)cc1O", "inactive"],
  ["CO[C@@H]1C[C@H](O[C@H]2CC[C@]3(C)C4CC[C@]5(C)[C@@H](C6=CC(=O)OC6)CC[C@]5(O)[C@@H]4CC[C@]3(O)C2)O[C@H](C)[C@@H]1O (stereo not given in full)", "inactive"],
  ["CC1=CC(=O)C2C(C)(C)CCC[C@]2(C)[C@@]1(O)CCc1ccoc1 (stereo not given in full)", "inactive"],
  ["O=C(O)CN(CCN(CC(=O)O)CC(=O)O)CC(=O)O", "inactive"]
]}
